Data credit: PubChem BioAssay AID624255

# Assay: T. cruzi intracellular proliferation inhibitors, primary screen, cell-based, beta-gal Tulahuen parasites, NIH3T3 host, luminescence (AID 624255)
# Settings: T. cruzi beta-gal in NIH3T3, GalScreen luminescence, 90 h; at 8.34 µM
In all, about 77,000 compounds went through this assay and about 4,600 (6%) were called active. Inconclusive results (about 1%) are left out.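 Rule for the calls: active = mean inhibition above about 93%, with at least 55% of replicates each passing it (limit read from the data, passing the limit was not always enough); inconclusive = only one of those two conditions holds; inactive = neither condition holds.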 The sample holds actives, similar compounds and a random draw of the others, so the mix is not that of the screen.
Choose one outcome from this list and give only that: Y (active), N (inactive)

*Q* Assay outcome for `O=C(C[C@@H]1C[C@@H]2c3cc(NC(=O)CC4CC4)ccc3O[C@@H]2[C@@H](CO)O1)NCCN1CCCCC1` : what was it?
*A* N

*Q* Which outcome was entered for the compound `O=C(NC1CCC1)[C@H]1[C@H](CO)[C@H]2Cn3c(ccc(C4=CCCCC4)c3=O)[C@@H]1N2CC1CC1` in this test?
*A* N

*Q* Just curious, what result did `C[C@H](O)C#Cc1ccc([C@@H]2[C@H](CO)N3CCCCN(CC4CC4)C[C@@H]23)cc1` get here?
*A* N

*Q* Tell me the assay call for `CCCC#Cc1ccc([C@H]2[C@H](CO)N3CCCCN(S(=O)(=O)CC)C[C@@H]23)cc1` please.
*A* N

*Q* Please let me know the test result on file for `Cn1cnc(S(=O)(=O)N2C[C@H](O)COC[C@@H]3O[C@H](CC(=O)NC4CCCC4)CC[C@H]32)c1` .
*A* N

*Q* How was `C[C@@H]1CCCCO[C@H](CN(C)C(=O)c2ccccc2)[C@H](C)CN([C@H](C)CO)C(=O)c2cc(N(C)C)ccc2O1` classified in this test?
*A* N

*Q* GET /call?item= `C/C=C/c1ccc([C@H]2[C@H]3CN(S(=O)(=O)c4ccccc4)CCCCN3[C@H]2CO)cc1` returns the recorded outcome of this test.
*A* Y

*Q* Name the outcome recorded for `CNC(=O)C[C@@H]1CC[C@@H]2[C@H](COc3ccc(NC(=O)c4cccs4)cc3C(=O)N2C)O1` in the assay.
*A* N

====

# Assay: T. cruzi intracellular proliferation inhibitors, primary screen, cell-based, beta-gal Tulahuen parasites, NIH3T3 host, luminescence (AID 624255)
# Settings: T. cruzi beta-gal in NIH3T3, GalScreen luminescence, 90 h; at 8.34 µM
Out of some 77,000 compounds screened, about 4,600 (6%) were called active. Not shown: some 1% with an inconclusive outcome.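 The calls were made as follows: active = mean inhibition above about 93%, with at least 55% of replicates each passing it (limit read from the data, passing the limit was not always enough); inconclusive = only one of those two conditions holds; inactive = neither condition holds.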 The entries come from a sample that favours actives as a whole.
Hi there, use one of these labels in your reply, thanks! active, inactive

*Q* Name the outcome recorded for `N#Cc1cccc(-c2ccc([C@H]3[C@@H](CO)N4CCCCN(C(=O)Nc5ccccc5)C[C@H]34)cc2)c1` in the assay.
*A* inactive

*Q* Given `OC[C@@H]1[C@H](c2ccc(C#CC3CC3)cc2)[C@@H]2CN(CCC(F)(F)F)CCCCN12` , state the outcome it received in this test.
*A* active

*Q* Query: recorded result category for `O=C(C1CCC1)N1CCCCN2[C@H](C1)[C@@H](c1ccc(C#CC3CCCC3)cc1)[C@@H]2CO` in this test
*A* inactive

*Q* Please share the test call associated with `C[C@H](CO)N1C[C@H](C)[C@H](CN(C)CC2CC2)OCCCC[C@H](C)Oc2ccc(NS(=O)(=O)c3cccs3)cc2C1=O` .
*A* inactive

*Q* Dear colleague, could you share the recorded outcome for `CC(C)C#Cc1ccc([C@H]2[C@@H](CO)N3CCCCN(C(=O)Nc4ccccc4)C[C@H]23)cc1` when you have a moment?
*A* inactive

*Q* Record lookup: outcome of this test for `O=C(Nc1cccc(F)c1)N1CCCCN2[C@H](CO)[C@H](c3ccc(C#CC4CC4)cc3)[C@@H]2C1` ?
*A* active

*Q* Dear colleague, could you share the recorded outcome for `COc1cccc(S(=O)(=O)Nc2ccc3c(c2)[C@H]2C[C@H](CC(=O)NCc4ccc(Cl)cc4)O[C@H](CO)[C@H]2O3)c1` when you have a moment?
*A* active

*Q* For this molecule, state the assay outcome: `Cc1ccc(S(=O)(=O)N(C)C[C@@H]2OCCCC[C@H](C)Oc3ccc(NS(=O)(=O)c4cn(C)cn4)cc3C(=O)N([C@H](C)CO)C[C@@H]2C)cc1`
*A* inactive

*Q* Query: recorded result category for `O=C(C[C@H]1C[C@@H]2c3cc(NC(=O)c4ccc5c(c4)OCO5)ccc3O[C@@H]2[C@@H](CO)O1)NCc1cccnc1` in this test
*A* inactive

*Q* So what was the verdict on `Cc1noc(C)c1S(=O)(=O)Nc1ccc2c(c1)C(=O)N([C@H](C)CO)C[C@@H](C)[C@@H](CN(C)C(=O)C1CCCCC1)OCCCC[C@@H](C)O2` in this test?
*A* inactive

*Q* Record lookup: outcome of this test for `C[C@H]1CN([C@@H](C)CO)C(=O)c2cccc(NC(=O)Nc3ccccc3)c2O[C@H]1CN(C)S(=O)(=O)c1ccc(F)cc1` ?
*A* inactive

*Q* Returns: the outcome recorded for `N#Cc1cccc(-c2ccc([C@H]3[C@H](CO)N4CCCCN(C(=O)Nc5cccc(F)c5)C[C@@H]34)cc2)c1` in this assay.
*A* active

*Q* Short answer needed: outcome of this test for `COc1ccccc1C#Cc1ccc([C@@H]2[C@H](CO)N3CCCCN(CCC(F)(F)F)C[C@@H]23)cc1` ?
*A* inactive

*Q* What call does the record list for `O=C(C[C@@H]1C[C@H]2c3cc(NC(=O)CC4CC4)ccc3O[C@H]2[C@@H](CO)O1)NCc1ccc2c(c1)OCO2` ?
*A* inactive

*Q* Please state the recorded outcome for this molecule: `COc1cccc(S(=O)(=O)Nc2ccc3c(c2)[C@@H]2C[C@@H](CC(=O)NCc4ccc(Cl)cc4)O[C@H](CO)[C@@H]2O3)c1`
*A* inactive

====

For each record, write down the corresponding inhibition.
# Assay: T. cruzi intracellular proliferation inhibitors, primary screen, cell-based, beta-gal Tulahuen parasites, NIH3T3 host, luminescence (AID 624255)
# Settings: T. cruzi beta-gal in NIH3T3, GalScreen luminescence, 90 h; at 8.34 µM; active compounds read high
Hit rate of the full screen: of about 77,000 compounds, about 4,600 (6%) were called active. Inconclusive results (about 1%) are left out. Shown is part of a subset that was picked to be rich in actives.
# unit: % | format: bare number

Sure, the documented inhibition for `COCC(=O)Nc1ccc2c(c1)[C@@H]1C[C@H](CC(=O)NCc3ccc(Cl)cc3)O[C@H](CO)[C@@H]1O2` is 0.832

For record `C[C@@H]1CN([C@@H](C)CO)C(=O)c2c(c3ccccc3n2C)-c2ccccc2CO[C@@H]1CN(C)S(=O)(=O)c1ccc(F)cc1` the listed inhibition is -18

// inhibition lookup, compound = `C[C@H]1CN([C@@H](C)CO)C(=O)c2ccccc2-c2ccccc2CO[C@@H]1CN(C)S(=O)(=O)c1ccc(C(F)(F)F)cc1` , result: 105

Given item `CN1C(=O)c2cc(NC(=O)C3CC3)ccc2OC[C@@H]2O[C@@H](CC(=O)NCC3CCCCC3)CC[C@@H]21` , the value recorded as its inhibition is -7.09

`CCCC(=O)Nc1ccc2c(c1)OC[C@@H](C)N(CC1CCOCC1)C[C@H](C)[C@H](OC)CN(C)C2=O` has a reported inhibition of 7.69

Lab book: inhibition of `COC(=O)C[C@@H]1C[C@H]2c3cc(NC(=O)Nc4ccc(F)cc4)ccc3O[C@H]2[C@@H](CO)O1` noted as -1.42

Short answer for `C[C@@H]1CCCCO[C@H](CN(C)S(=O)(=O)c2ccc(Cl)cc2)[C@H](C)CN([C@@H](C)CO)C(=O)c2cc(NS(=O)(=O)c3cccs3)ccc2O1` : inhibition was 110

inhibition for `C[C@H](CO)N1C[C@H](C)[C@H](CN(C)S(=O)(=O)c2cccc(F)c2)Oc2ncc(/C=C/c3ccccc3)cc2C1=O` is 107

Sample `COCC(=O)Nc1ccc2c(c1)C(=O)N(C)[C@H]1CC[C@H](CC(=O)Nc3ccccc3)O[C@H]1CO2` ; inhibition observed: 43.2

compound `Cc1ccc(S(=O)(=O)N(C)C[C@H]2OCc3ccccc3-c3ccccc3C(=O)N([C@@H](C)CO)C[C@@H]2C)cc1` , inhibition observed: 81.8

For record `CCC(=O)N1C[C@@H](C)[C@H](OC)CN(C)C(=O)c2ccc(NC(=O)Nc3ccccc3)cc2OC[C@@H]1C` the listed inhibition is 13.5

# inhibition (compound: `C[C@H](CO)N1C[C@H](C)[C@@H](CN(C)S(=O)(=O)c2cccc(F)c2)OCc2ccccc2-c2c(n(C)c3ccccc23)C1=O` ) is 98

The recorded inhibition for `C[C@H](CO)N1C[C@H](C)[C@@H](CN(C)C(=O)Nc2ccnc(N3CCOCC3)c2)OCc2ccccc2-c2ccccc2C1=O` is 113

inhibition in this record for `COc1cccc(NC(=O)N(C)C[C@H]2OCc3ccccc3-c3ccccc3C(=O)N([C@H](C)CO)C[C@@H]2C)c1` : -8.4

Measured inhibition, `C[C@@H]1CN([C@@H](C)CO)C(=O)c2ccccc2-c2ccccc2CO[C@H]1CN(C)C(=O)Nc1ccccc1` : 24.6
